# TEST_SUMMARY: Growth inhibition of human Gurav cells by SRB method
# Assay type: functional
GI50 vs 2000 nM: less than gives condition met; not less than gives condition not met.

Input "COC(=O)c1nnn(CCCOc2cc3c(cc2OC)C(=O)N2CCC[C@H]2C=N3)c1C(=O)OC" ; condition: GI50 strictly below 2000 nM. Does it hold?
condition not met

Input "COc1cccc2c1C(=O)c1c(O)c3c(c(O)c1C2=O)C[C@@](O)(C(=O)CO)C[C@@H]3O[C@H]1C[C@H](N)[C@H](O)[C@H](C)O1" ; condition: GI50 strictly below 2000 nM. Does it hold?
condition met

Input "COC(=O)c1nnn(CCCCOc2cc3c(cc2OC)C(=O)N2CCC[C@H]2C=N3)c1C(=O)OC" ; condition: GI50 strictly below 2000 nM. Does it hold?
condition not met

Input "COC(=O)c1nnn([C@H]2C[C@H]3C=Nc4cc(OC)c(OC)cc4C(=O)N3C2)c1C(=O)OC" ; condition: GI50 strictly below 2000 nM. Does it hold?
condition not met

Input "COC(=O)c1nnn(CCCOc2cc3c(cc2OC)C(=O)N2C[C@@H](n4nnc(C(=O)OC)c4C(=O)OC)C[C@H]2C=N3)c1C(=O)OC" ; condition: GI50 strictly below 2000 nM. Does it hold?
condition not met

Input "COC(=O)c1nnn(CCCCCOc2cc3c(cc2OC)C(=O)N2C[C@@H](n4nnc(C(=O)OC)c4C(=O)OC)C[C@H]2C=N3)c1C(=O)OC" ; condition: GI50 strictly below 2000 nM. Does it hold?
condition met

Input "COC(=O)c1nnn(CCCCCOc2cc3c(cc2OC)C(=O)N2CCC[C@H]2C=N3)c1C(=O)OC" ; condition: GI50 strictly below 2000 nM. Does it hold?
condition not met

Input "COc1cc2c(cc1O)N=C[C@@H]1CCCN1C2=O" ; condition: GI50 strictly below 2000 nM. Does it hold?
condition met
